Target: O-acyltransferase (Oryctolagus cuniculus)
Sequence (G1SFD9 1-524): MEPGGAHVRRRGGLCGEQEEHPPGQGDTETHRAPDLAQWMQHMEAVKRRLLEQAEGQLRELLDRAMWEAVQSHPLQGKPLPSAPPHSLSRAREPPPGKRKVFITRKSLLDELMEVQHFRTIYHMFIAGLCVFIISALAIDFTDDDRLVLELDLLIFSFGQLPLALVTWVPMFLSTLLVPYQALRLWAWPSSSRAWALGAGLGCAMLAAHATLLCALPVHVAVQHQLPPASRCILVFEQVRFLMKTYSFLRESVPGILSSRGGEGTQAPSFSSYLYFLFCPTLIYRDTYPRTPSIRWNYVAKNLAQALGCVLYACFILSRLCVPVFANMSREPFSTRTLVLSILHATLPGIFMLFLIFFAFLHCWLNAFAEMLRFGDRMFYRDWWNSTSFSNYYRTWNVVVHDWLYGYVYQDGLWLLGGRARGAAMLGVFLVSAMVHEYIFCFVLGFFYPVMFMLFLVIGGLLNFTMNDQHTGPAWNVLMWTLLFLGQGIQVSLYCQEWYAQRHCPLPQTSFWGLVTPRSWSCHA
Test: In vitro inhibition of acyl coenzyme A:cholesterol acyltransferase, in intestinal microsomes isolated from cholesterol-fed rabbits
Parameters: species or system Intestine
// map IC50 to label using low group (below 0.07 µM), middle group (0.07 µM to below 0.4 µM), high group (0.4 µM or more)

# example entries with known answers
{"columns": ["compound", "classification"],
 "data": [
  ["CCCCCCCCCCC(C)(C)C(=O)Nc1c(C)cccc1OC", "middle group"],
  ["CCCCCCCCCCCCC1(C(=O)Nc2c(OC)cc(OC)cc2OC)CC1", "low group"],
  ["CCCCCCCC/C=C/CCCCCCCC(=O)Nc1ccccc1CC", "high group"]
]}

Kindly state the category for this compound: `CCCCCCCCCCC(C)(C)C(=O)Nc1ccc(C)cc1C`
high group

For this compound, which bin applies? CCCCCCCC/C=C/CCCCCCC(C)C(=O)Nc1c(OC)cc(OC)cc1OC (stereo unspecified)
low group

Note: place this compound into its band. Item: `CCCCCCCC/C=C/CCCCCCCC(=O)Nc1cc(C(=O)OC)ccc1OC`
high group

Exercise: read the entry `CCCCCCCC/C=C/CCCCCCCC(=O)Nc1c(C)cccc1OC` and state which class it falls under.
low group

Where would `CCCCCCCC/C=C/CCCCCCCC(=O)Nc1cccc2c1CCCC2` land among the classes by reported IC50?
middle group

Lab note: sort `CCCCCCCCCCC(C)(C)C(=O)Nc1c(OC)cc(OC)cc1OCCCCCCC` into the matching IC50 band.
middle group

Quick check: band for `CCCCCCCC/C=C/CCCCCCCC(=O)Nc1ccccc1C(=O)c1ccccc1`
high group

Class label required: `CCCCCCCCCCCCCCCCCC(=O)Nc1c(OC)cc(OC)cc1OC`
low group

# bin lookup: classify `CCCCCCCCCCC1(C(=O)Nc2c(OC)cc(OC)cc2OC)CCCCCC1` by its IC50
middle group

Category of `C=C(CCCCCCCCCC)C(=O)Nc1c(OC)cc(OC)cc1OC` :
middle group

Exam item: assign `CCCCCCCC/C=C/CCCCCCCC(=O)Nc1c(Cl)cc(Cl)cc1Cl` to the correct category.
low group

GET /class?item= `CCCCCCCCCCC(C)(C)C(=O)Nc1c(C)cc(C)cc1C`
middle group

For this compound, which bin applies? `CCCCCCCCCCCCCCC(=O)Nc1c(OC)cc(OC)cc1OC`
low group

// return the class label for `CCCCCCCCCCC(C)(C)C(=O)Nc1c(C(C)C)cccc1C(C)C`
middle group
